kon listing for selected binders.
- systemName: T1, SARS-CoV-2 Receptor Binding Domain (RBD) protein (SARS-CoV-2, UniProt P0DTC2 319-541)
- T1 construct: also called Sars-Cov-2 (COV2)
- testSummary: SPR (Carterra LSA); scFv captured by anti-V5, RBD as analyte

- binder: "COVID19_P14_H10 (scFv, V domains shown) VH: QVQLVQSGAEVKKPGSSVKVSCKASGGSFSRFPISWVRQAPGQGLEWMGGIIPIFGTANYAQRFQGRVTITADESTSTAYMELSSLRSEDTAVYYCALETVMGGLQVWGQGTLVTVSS VL: SSYVLTQPPSVSVAPGKTARITCGGNNIGSKSVHWYQQKPGQAPVLVIYYDSDRPSGIPERFSGSNSGNTATLTISRVEAGDEADYYCQVWDSSSDYVFGGGTKLTVLA"
  kon: "355000 M⁻¹ s⁻¹"
- binder: "COVID19_P14_G01 (scFv, V domains shown) VH: QVQLVQSGAEVKKPGSSVKVSCKASGYNFINYYLHWVRQAPGQGLEWMGGITPIFGIANYAQKFQGRVTITADESTSTAYMELSSLRSEDTAVYYCARETVMGGMDVWGQGTLVTVSS VL: SSYVLTQPPSVSVAPGKTARITCGGNKIGSKSVHWYQQKPGQAPVLVIYYDSDRPSGIPERFSGSNSGNTATLTISRVEAGDEADYYCQVWDSGSDYVFGGGTKLTVLA"
  kon: "99700 M⁻¹ s⁻¹"
- binder: "COVID19_P14_B05 (scFv, V domains shown) VH: QVQLVQSGAEVKKPGSSVKVSCKASGGTFSSYTISWVRQAPGQGLEWMGIINPSGGSTSYAQKFQGRVTITADESTSTAYMELSSLRSEDTAVYYCARDTVMGGMGVWGQGTLVTVSS VL: SSYVLTQPPSVSVAPGKTARITCGGNNIGSKSVHWYQQKPGQAPVLVIYYDSDRPSGIPERFSGSNSGNTATLTISRVEAGDEADYYCQVWDSSSFYVFGGGTKLTVLA"
  kon: "294000 M⁻¹ s⁻¹"
- binder: "COVID19_P13_D01 (scFv, V domains shown) VH: QVQLVQSGAEVKKPGSSVKVSCKASGYTFSDFDINWVRQAPGQGLEWMGGIIPIFGTANYAQKFQGRVTITADESTSTAYMELSSLRSEDTAVYYCGMDTVMGGMTSWGQGTLVTVSS VL: SSYVLTQPPSVSVAPGKTARITCGGNNIGSKSVHWYQQKPGQAPVLVIYYDSDRPSGIPERFSGSNSGNTATLTISRVEAGDEADYYCQVWDSSHDYVFGGGTKLTVLA"
  kon: "110000 M⁻¹ s⁻¹"
- binder: "COVID19_P13_B12 (scFv, V domains shown) VH: QVQLVQSGAEVKKPGSSVKVSCKASGYTFTDFHMHWVRQAPGQGLEWMGGIIPIFGTANYAQKFQGRVTITADESTSTAYMELSSLRSEDTAVYYCALETVMGGMDVWGQGTLVTVSS VL: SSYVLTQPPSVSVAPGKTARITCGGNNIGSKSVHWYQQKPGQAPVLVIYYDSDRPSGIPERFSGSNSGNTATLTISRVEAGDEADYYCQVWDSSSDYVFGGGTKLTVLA"
  kon: "150000 M⁻¹ s⁻¹"
- binder: "COVID19_P14_B07 (scFv, V domains shown) VH: QVQLVQSGAEVKKPGSSVKVSCKASGYTFTSYGISWVRQAPGQGLEWMGWINPNSGGTNYAQKFQGRVTITADESTSTAYMELSSLRSEDTAVYYCAVETVMGGFTVWGQGTLVTVSS VL: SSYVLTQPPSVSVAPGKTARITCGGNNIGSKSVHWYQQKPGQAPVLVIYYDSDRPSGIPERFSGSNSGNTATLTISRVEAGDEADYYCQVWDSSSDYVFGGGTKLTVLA"
  kon: "383000 M⁻¹ s⁻¹"
- binder: "COVID19_P13_H02 (scFv, V domains shown) VH: QVQLVQSGAEVKKPGSSVKVSCKASGYTFTGFYMQWVRQAPGQGLEWMGGITPILGTANYAQKFQGRVTITADESTSTAYMELSSLRSEDTAVYYCAREIVMGGMDVWGQGTLVTVSS VL: SSYVLTQPPSVSVAPGKTARITCGGNNIGSKSVHWYQQKPGQAPVLVIYYDSDRPSGIPERFSGSNSGNTATLTISRVEAGDEADYYCQSWDSSSDYVFGGGTKLTVLA"
  kon: "210000 M⁻¹ s⁻¹"
- binder: "COVID19_P02_A04 (scFv, V domains shown) VH: QVQLVQSGAEVKKPGSSVKVSCKASGYAFTSYYMHWVRQAPGQGLEWMGVIDPSEGSTSNARKFQGRVTITADESTSTAYMELSSLRSEDTAVYYCVSDTVMGGMDVWGQGTLVTVSS VL: SSYVLTQPPSVSVAPGKTARITCGGNNIGSKSVHWYQQKPGQAPVLVVYDDSDRPSGIPERFSGSNSGNTATLTISRVEAGDEADYYCQVWDSSSLYVFGGGTKLTVLA"
  kon: "451000 M⁻¹ s⁻¹"
- binder: "COVID19_P01_E11 (scFv, V domains shown) VH: QVQLVQSGAEVKKPGSSVKVSCKASGGTFSNYTITWVRQAPGQGLEWLGWISAYNGNTDYAQKLQGRVTITADESTSTAYMELSSLRSEDTAVYYCARDALMGGMDVWGQGTLVTVSS VL: SSYVLTQPPSVSVAPGKTARITCGGNNIGSKSVHWYQQKPGQAPVLVIYYDSDRPSGIPERFSGSNSGNTATLTISRVEAGDEADYYCQVWDSRSDYVFGGGTKLTVLA"
  kon: "99900 M⁻¹ s⁻¹"
